Values from patent US7008953B2

Target: MAPK kinase (MKK1, also called MEK) (Homo sapiens)
Sequence (Q02750 whole entry): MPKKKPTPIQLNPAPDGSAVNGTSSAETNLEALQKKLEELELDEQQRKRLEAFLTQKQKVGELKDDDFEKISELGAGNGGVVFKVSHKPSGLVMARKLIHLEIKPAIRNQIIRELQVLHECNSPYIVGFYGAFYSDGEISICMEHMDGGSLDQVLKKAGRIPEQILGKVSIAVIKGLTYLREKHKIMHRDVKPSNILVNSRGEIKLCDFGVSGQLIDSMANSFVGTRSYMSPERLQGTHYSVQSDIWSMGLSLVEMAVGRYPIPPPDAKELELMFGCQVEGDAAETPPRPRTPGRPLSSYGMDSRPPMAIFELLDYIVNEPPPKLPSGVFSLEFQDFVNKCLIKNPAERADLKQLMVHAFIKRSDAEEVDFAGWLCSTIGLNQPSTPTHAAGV
Experiment: Panel of protein kinases: MKK1
Format: biochemical
Settings: method of Davies et al.

SMI	Kinase MKK1 inhibition
CCNCc1cncc(-c2ccc3[nH]nc(-c4nc5cc(F)ccc5[nH]4)c3c2)c1C	− (Weak inhibition <50%)
CCNCc1cncc(-c2ccc3[nH]nc(-c4nc5c(F)cc(F)cc5[nH]4)c3c2)c1C	− (Weak inhibition <50%)

---

Biological target: UniProt Q9HC98
Sequence (Q9HC98 whole entry, species assumed): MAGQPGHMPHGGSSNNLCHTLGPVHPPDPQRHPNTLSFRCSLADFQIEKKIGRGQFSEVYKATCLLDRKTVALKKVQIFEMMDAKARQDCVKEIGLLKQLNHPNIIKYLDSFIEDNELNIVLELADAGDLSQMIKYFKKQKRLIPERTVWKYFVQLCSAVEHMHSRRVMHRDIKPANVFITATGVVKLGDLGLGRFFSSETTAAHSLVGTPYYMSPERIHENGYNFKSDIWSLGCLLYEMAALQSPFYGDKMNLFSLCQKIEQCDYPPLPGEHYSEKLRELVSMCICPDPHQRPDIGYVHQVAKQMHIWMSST
Assay: Panel of protein kinases: NEK6
Type: biochemical
Settings: method of Davies et al.
ATTRIBUTE_MEASURED: Kinase NEK6 inhibition

SMI	VALUE
CCNCc1cncc(-c2ccc3[nH]nc(-c4nc5c(NC(C)=O)cccc5[nH]4)c3c2)c1C	− (Weak inhibition <50%)
CCNCc1cncc(-c2ccc3[nH]nc(-c4nc5cc(F)ccc5[nH]4)c3c2)c1C	− (Weak inhibition <50%)
CCNCc1cncc(-c2ccc3[nH]nc(-c4nc5c(C(=O)NC)cccc5[nH]4)c3c2)c1C	− (Weak inhibition <50%)
CCNCc1cncc(-c2ccc3[nH]nc(-c4nc5ccccc5[nH]4)c3c2)c1C	− (Weak inhibition <50%)
CCNCc1cncc(-c2ccc3[nH]nc(-c4nc5c(F)cc(F)cc5[nH]4)c3c2)c1C	− (Weak inhibition <50%)

Now consider the entry below.
query: Complete the entry with Kinase NEK6 inhibition for "CCNCc1cncc(-c2ccc3[nH]nc(-c4nc5c(SC)cccc5[nH]4)c3c2)c1C"
result: − (Weak inhibition <50%)

---

Please go through the items and note down their pKi.
Biological target: CDK2/Cyclin A (Homo sapiens, UniProt P24941)
Construct: cyclin A: E. coli
Assay: Inhibition of CDK2/Cyclin A retinoblastoma kinase activity (apparent Ki)
Details: Rb fragment substrate, 25 μM ATP
// scale note: pKi = -log10(conc_M); give the bare number

query: // fetch pKi for "CCNCc1cncc(-c2ccc3[nH]nc(-c4nc5c(NC(C)=O)cccc5[nH]4)c3c2)c1C" ; system: CDK2/Cyclin A (Homo sapiens, UniProt P24941)
result: 8.62

query: // fetch pKi for "CCNCc1cncc(-c2ccc3[nH]nc(-c4nc5c(C(=O)NC)cccc5[nH]4)c3c2)c1C" ; system: CDK2/Cyclin A (Homo sapiens, UniProt P24941)
result: 9.60

query: // fetch pKi for "CCNCc1cncc(-c2ccc3[nH]nc(-c4nc5c(F)cc(F)cc5[nH]4)c3c2)c1C" ; system: CDK2/Cyclin A (Homo sapiens, UniProt P24941)
result: 9.11

query: // fetch pKi for "CCNCc1cncc(-c2ccc3[nH]nc(-c4nc5cc(F)ccc5[nH]4)c3c2)c1C" ; system: CDK2/Cyclin A (Homo sapiens, UniProt P24941)
result: 9.33

query: // fetch pKi for "CCNCc1cncc(-c2ccc3[nH]nc(-c4nc5ccccc5[nH]4)c3c2)c1C" ; system: CDK2/Cyclin A (Homo sapiens, UniProt P24941)
result: 9.28

query: // fetch pKi for "CCNCc1cncc(-c2ccc3[nH]nc(-c4nc5c(SC)cccc5[nH]4)c3c2)c1C" ; system: CDK2/Cyclin A (Homo sapiens, UniProt P24941)
result: 9.10

---

Tested on: HCT 116 cell line
Test: Inhibition of cell growth, MTT tetrazolium salt assay
Format: cell-based
Settings: Homo sapiens, 50% inhibition of growth
ATTRIBUTE_MEASURED: pIC50
// scale note: pIC50 = -log10(conc_M); give the bare number

query: Complete the entry with pIC50 for "CCNCc1cncc(-c2ccc3[nH]nc(-c4nc5c(F)cc(F)cc5[nH]4)c3c2)c1C"
result: 6.92

query: Complete the entry with pIC50 for "CCNCc1cncc(-c2ccc3[nH]nc(-c4nc5ccccc5[nH]4)c3c2)c1C"
result: 7.15

query: Complete the entry with pIC50 for "CCNCc1cncc(-c2ccc3[nH]nc(-c4nc5c(C(=O)NC)cccc5[nH]4)c3c2)c1C"
result: 7.05

query: Complete the entry with pIC50 for "CCNCc1cncc(-c2ccc3[nH]nc(-c4nc5cc(F)ccc5[nH]4)c3c2)c1C"
result: 7.66

query: Complete the entry with pIC50 for "CCNCc1cncc(-c2ccc3[nH]nc(-c4nc5c(SC)cccc5[nH]4)c3c2)c1C"
result: 7.07

---

Biological target: p38-regulated/activated kinase (PRAK) (Homo sapiens)
Sequence (Q8IW41 whole entry, species assumed): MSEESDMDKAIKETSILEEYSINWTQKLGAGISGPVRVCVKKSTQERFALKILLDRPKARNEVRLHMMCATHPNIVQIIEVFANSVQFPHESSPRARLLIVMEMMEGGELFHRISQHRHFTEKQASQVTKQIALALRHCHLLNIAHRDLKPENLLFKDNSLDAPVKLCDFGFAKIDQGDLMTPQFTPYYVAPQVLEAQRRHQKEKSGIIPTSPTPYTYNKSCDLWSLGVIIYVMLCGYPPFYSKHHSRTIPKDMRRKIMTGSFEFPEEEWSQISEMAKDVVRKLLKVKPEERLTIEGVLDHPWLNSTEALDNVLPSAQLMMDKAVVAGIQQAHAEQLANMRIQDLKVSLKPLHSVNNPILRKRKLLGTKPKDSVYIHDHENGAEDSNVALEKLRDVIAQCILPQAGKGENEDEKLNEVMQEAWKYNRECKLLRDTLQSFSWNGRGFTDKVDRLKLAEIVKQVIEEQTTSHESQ
Experiment: Panel of protein kinases: PRAK
Format: biochemical
Details: method of Davies et al.
ATTRIBUTE_MEASURED: Kinase PRAK inhibition

SMI	VALUE
CCNCc1cncc(-c2ccc3[nH]nc(-c4nc5c(F)cc(F)cc5[nH]4)c3c2)c1C	− (Weak inhibition <50%)
CCNCc1cncc(-c2ccc3[nH]nc(-c4nc5cc(F)ccc5[nH]4)c3c2)c1C	− (Weak inhibition <50%)

---

Molecular target: protein kinase A (PKA) (Bos taurus)
Assay: Panel of protein kinases: PKA
Type: biochemical
Conditions: method of Davies et al.

COMPOUND	MEASURED_TARGET	Kinase PKA inhibition
CCNCc1cncc(-c2ccc3[nH]nc(-c4nc5c(F)cc(F)cc5[nH]4)c3c2)c1C [Example 1]	protein kinase A (PKA) (Bos taurus)	− (Weak inhibition <50%)
CCNCc1cncc(-c2ccc3[nH]nc(-c4nc5cc(F)ccc5[nH]4)c3c2)c1C [Example 2]	protein kinase A (PKA) (Bos taurus)	− (Weak inhibition <50%)
CCNCc1cncc(-c2ccc3[nH]nc(-c4nc5c(NC(C)=O)cccc5[nH]4)c3c2)c1C [D]	protein kinase A (PKA) (Bos taurus)	− (Weak inhibition <50%)

---

Tested on: casein kinase 2 (CK2)
Assay: Panel of protein kinases: CK2
Format: biochemical
Settings: method of Davies et al.
ATTRIBUTE_MEASURED: Kinase CK2 inhibition

SMI	VALUE
CCNCc1cncc(-c2ccc3[nH]nc(-c4nc5c(C(=O)NC)cccc5[nH]4)c3c2)c1C	− (Weak inhibition <50%)
CCNCc1cncc(-c2ccc3[nH]nc(-c4nc5c(NC(C)=O)cccc5[nH]4)c3c2)c1C	− (Weak inhibition <50%)
CCNCc1cncc(-c2ccc3[nH]nc(-c4nc5ccccc5[nH]4)c3c2)c1C	− (Weak inhibition <50%)
CCNCc1cncc(-c2ccc3[nH]nc(-c4nc5c(SC)cccc5[nH]4)c3c2)c1C	− (Weak inhibition <50%)

query: Complete the entry with Kinase CK2 inhibition for "CCNCc1cncc(-c2ccc3[nH]nc(-c4nc5c(F)cc(F)cc5[nH]4)c3c2)c1C"
result: − (Weak inhibition <50%)
